system: BxPC-3 Pancreas; assay: Cell line assay, HOCOS combinations, BxPC-3; format: cell-based; details: Homo sapiens; BxPC-3, compound alone
assay_endpoint: IC50 (nM)
One number for each entry, in nM.

IC50 measured on Nc1ccn([C@@H]2O[C@H](CO)[C@@H](O)C2(F)F)c(=O)n1 = 7.8

* * *

tested on: SNB19 Glioblastoma; assay: cells; conditions: Homo sapiens, SNB-19
assay_endpoint: IC50 (mM)
Answers are plain numbers, in mM.

IC50 measured on Cc1ncc(C[n+]2csc(CCO)c2C)c(N)n1 = 15.3
